Tested on: RXF 393 renal
experimental_details: NCI-60 one-dose screen, 48 h
condition_info: 10 µM unless noted
Compounds without any hit were thinned out: in the full panel of roughly 83,000, 20% have a hit. The source made the active and inactive calls. How the source made its calls: active means growth percent below 10; inactive means the rest.
Classes used: yes (1) for active, no (0) for inactive

{"columns": ["compound", "discrete_label"],
 "data": [
  ["Cc1ccc(C)c2c1sc1nc(N3CCOCC3)c(C#N)c(=O)n12", "no (0)"],
  ["Cc1nc2sc(C(=O)Nc3cccc4ccccc34)c(N)c2cc1C(=O)c1ccccc1", "no (0)"],
  ["O=C1c2cccnc2C(=O)c2c1c(C(=O)OCCc1ccccn1)c1ccccn21", "yes (1)"],
  ["O=C(O)c1cn(C2CC2)c2cc(N3CCN(C(=O)N/N=C/c4cccc5ccccc45)CC3)c(F)cc2c1=O", "no (0)"],
  ["CCN(CC)c1ccc(-c2cc(-c3cc(OC)c(OC)c(OC)c3)nc(N3CCC(O)CC3)c2C#N)cc1", "yes (1)"],
  ["Cc1oc(-c2ccc(Cl)cc2)nc1C1=NN(C(=O)c2ccncc2)C(c2ccccc2)C1 (centres undefined)", "no (0)"],
  ["O=C(NCCCCO)c1cncnc1Nc1ccc2c(ccn2Cc2cccc(F)c2)c1", "no (0)"],
  ["c1ccc(Nc2nc3c(s2)CCc2c[nH]cc2-3)nc1", "no (0)"],
  ["O=S(=O)(N=C1C(Cl)=C(Cl)C(=NS(=O)(=O)c2ccccc2)C(Cl)=C1Cl)c1ccccc1", "no (0)"]
]}

====

System: HOP-62 NSCLC
experimental_details: NCI-60 one-dose screen, 48 h (100 = growth as untreated, 0 = no growth, -100 = all killed)
condition_info: 10 µM unless noted
This is part of a sample that, as a whole, favours compounds with a hit. Of some 83,000 tested, about 20% had one in any assay.
Listed next: entries and their corresponding growth.

{"columns": ["molecule", "test_system", "growth / %"],
 "data": [
  ["CCOc1ncc([N+](=O)[O-])c(OCC)n1", "HOP-62 NSCLC", 104],
  ["COc1ccc(Nc2ncc(C#N)c(NCCCNC(=O)C3CCC3)n2)cc1", "HOP-62 NSCLC", 31.4],
  ["Cc1nc2sc(C(=O)Nc3cccc4ccccc34)c(N)c2cc1C(=O)c1ccccc1", "HOP-62 NSCLC", 42.5],
  ["O=c1cc(CP(=O)(O)O)c2cc(O)c(-c3ccccc3)cc2o1", "HOP-62 NSCLC", 103],
  ["COc1ccc(C(=O)Nc2ncc(Cc3ccc(Cl)cc3)s2)cc1", "HOP-62 NSCLC", 21.2],
  ["CCOc1ccc(NC(=O)Nc2ccc(OCC)cc2)cc1", "HOP-62 NSCLC", 98.2],
  ["C=C(C)[C@@H]1CC[C@]2(C)[C@H](C=CC3=C4C[C@@](C)(CO)CC[C@]4(C)CC[C@]32C)[C@@]1(C)CCCN", "HOP-62 NSCLC", -54.9],
  ["COC1C(O)CC(OC2CC(OC3CC(O[C@@H]4C(=O)c5c(cc6cc(OC7CC(OC8CC(O)C(O)C(C)O8)C(O)C(C)O7)c(C)c(O)c6c5O)CC4[C@H](OC)C(=O)O)OC(C)C3O)OC(C)C2O)OC1C (stereo partly drawn)", "HOP-62 NSCLC", 1.26],
  ["COc1ccc2c(O)c(/C=C3\\N=Nc4ncccc43)oc2c1C[C@@H]1CCNC[C@H]1F", "HOP-62 NSCLC", -30.5],
  ["COc1cc2c3c(c4c5ccccc5[nH]c4c2c(OC)c1OC)C(=O)N(CCN1CCCCC1)C3=O", "HOP-62 NSCLC", 41.7],
  ["Nc1ncnc2c1N=C(c1ccc(Cl)cc1)CC(c1cccc(Nc3ccnc4cc(Cl)ccc34)c1)N2 (stereo not drawn)", "HOP-62 NSCLC", 70.4],
  ["COC(=O)/C=C1/SC(=NCc2ccccc2)N(CCc2c[nH]c3ccccc23)C1=O", "HOP-62 NSCLC", 102],
  ["O=S(=O)(Nc1cc(Sc2nc3ccccc3s2)c(O)c2ccccc12)c1ccc2ccccc2c1", "HOP-62 NSCLC", 102],
  ["COC(=O)[C@@]12CC=C(C)[C@]3(C[C@H](c4ccoc4)OC3=O)[C@H]1C=C[C@@H](O)[C@@]2(O)C(=O)OC", "HOP-62 NSCLC", 91.3],
  ["Cc1c2ccccc2nc2cc3c(cc12)[C@H]1CC[C@]2(C)C(=O)CC[C@H]2[C@@H]1CC3", "HOP-62 NSCLC", 105],
  ["CC(=O)O[C@H]1CC[C@]2(C)[C@H]3CC=C4[C@@H]5CC(C)(C)CC[C@]5(C(=O)N5CCN(CCC#N)CC5)CC[C@@]4(C)[C@]3(C)CC[C@H]2C1(C)C", "HOP-62 NSCLC", 41.2],
  ["CCOC(=O)c1cnn(CC(C)O)c1NC(=O)NCc1cccc(F)c1 (stereo not drawn)", "HOP-62 NSCLC", 100],
  ["COc1ccc(C/C(C)=C(\\c2ccc(Cl)cc2)c2ccc(OCCCN(C)C)cc2)cc1", "HOP-62 NSCLC", 92.9]
]}

Attribution: PubChem BioAssay (NCI)
